target.or.test.system: human full length HSD11 β 1 (Homo sapiens)
Construct: transient expression of human full length HSD11 β 1 expression vector; host or cells: CHO cells (transient transfection)
assay.method.text: In Vitro HSD11β1 Inhibition Assay
Format: cell-based
measurement.context: CHO cells transiently expressing human HSD11β1; 200 nM cortisone+500 uM NADPH overnight; cortisone to cortisol by LC/MS-MS; read-out: 11βHSD1 (IC50)
pIC50: −log10 of the molar value.

compound: CC(C)C(CC(=O)N1CCOC2CCCCC21)c1c[nH]c2cccc(F)c12 (centres unmarked)
target.or.test.system: human full length HSD11 β 1 (Homo sapiens)
pIC50: < 6.60
--
compound: CC(CC(=O)N1CCCC2CCCCC21)c1c[nH]c2ccccc12 (single isomer, unassigned) [Example 124]
target.or.test.system: human full length HSD11 β 1 (Homo sapiens)
pIC50: 6.82 to 7.00
--
compound: O=C(O)C1CCCC2C1CCCN2C(=O)CC(c1cccs1)c1c[nH]c2cccc(Cl)c12 (centres unmarked) [Compound 206]
target.or.test.system: human full length HSD11 β 1 (Homo sapiens)
pIC50: > 7.00
--
compound: Cc1cccc2c1c(CCC(=O)N1CC(C)OC3CCCCC31)cn2C (centres unmarked)
target.or.test.system: human full length HSD11 β 1 (Homo sapiens)
pIC50: < 6.60
--
compound: CC(CC(=O)N1C(C)CCC2C(C(=O)O)CCCC21)c1c[nH]c2cccc(-c3cccs3)c12 (centres unmarked) [Compound 232]
target.or.test.system: human full length HSD11 β 1 (Homo sapiens)
pIC50: 6.70 to 6.82
--
compound: CC1CC2CCCCC2N(C(=O)CCc2c[nH]c3ccccc23)C1 (centres unmarked)
target.or.test.system: human full length HSD11 β 1 (Homo sapiens)
pIC50: < 6.60
--
compound: CC(C)C(CC(=O)N1CCC(C(=O)O)C2CCCCC21)c1c[nH]c2ncccc12 (centres unmarked)
target.or.test.system: human full length HSD11 β 1 (Homo sapiens)
pIC50: < 6.60
--
compound: O=C(O)Cn1cc(CCC(=O)N2CCCC3CCCCC32)c2ccccc21 (centres unmarked)
target.or.test.system: human full length HSD11 β 1 (Homo sapiens)
pIC50: < 6.60

###

target.or.test.system: human full length HSD11 β 1 (Homo sapiens)
Construct: transient expression of human full length HSD11 β 1 expression vector; host or cells: CHO cells (transient transfection)
assay.method.text: In Vitro HSD11β1 Inhibition Assay
Type: cell-based
measurement.context: CHO cells transiently expressing human HSD11β1; 200 nM cortisone+500 uM NADPH overnight; cortisone to cortisol by LC/MS-MS; read-out: 11βHSD1 (IC50)
quantity.measured: IC50

compound: CC(CC(=O)N1CCCC2CCCCC21)c1c[nH]c2ccccc12 (single isomer, unassigned) [Example 119]
target.or.test.system: human full length HSD11 β 1 (Homo sapiens)
result: < 100 nM
--
compound: CCn1cc(C(C)CC(=O)N2CCCC3C(C(=O)O)CCCC32)c2c(C3CC3)cccc21 (stereo not shown) [Compound 210]
target.or.test.system: human full length HSD11 β 1 (Homo sapiens)
result: 100 to 150 nM
--
compound: COC(=O)C1CCN(C(=O)CCc2nc3ccccc3s2)C2CCCCC12 (stereo not shown) [Example 77]
target.or.test.system: human full length HSD11 β 1 (Homo sapiens)
result: > 250 nM
--
compound: CC12CCCCC1N(C(=O)CCc1nc3ccccc3s1)CCC2 (stereo not shown) [Example 78]
target.or.test.system: human full length HSD11 β 1 (Homo sapiens)
result: < 100 nM

###

target.or.test.system: human full length HSD11 β 1 (Homo sapiens, UniProt P28845)
Construct: transient expression of human full length HSD11 β 1 expression vector; host or cells: CHO cells (transient transfection)
Sequence (P28845 whole entry): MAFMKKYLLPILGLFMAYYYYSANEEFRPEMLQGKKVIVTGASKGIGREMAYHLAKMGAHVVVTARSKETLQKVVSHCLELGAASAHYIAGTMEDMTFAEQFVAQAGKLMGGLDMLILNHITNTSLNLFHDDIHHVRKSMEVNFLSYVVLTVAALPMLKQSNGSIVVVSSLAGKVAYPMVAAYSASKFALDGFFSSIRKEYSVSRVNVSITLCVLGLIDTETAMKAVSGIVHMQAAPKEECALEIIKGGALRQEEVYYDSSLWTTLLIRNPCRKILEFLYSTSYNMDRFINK
assay.method.text: In Vitro HSD11β1 Inhibition Assay
Format: cell-based
measurement.context: CHO cells transiently expressing human HSD11β1; 200 nM cortisone+500 uM NADPH overnight; cortisone to cortisol by LC/MS-MS; read-out: 11βHSD1 (IC50)
pIC50: −log10 of the molar value.
quantity.measured: pIC50

compound: CC(CC(=O)N1CCCC2CCCCC21)c1c[nH]c2ccccc12 (single isomer, unassigned) [Example 125]
result: > 7.00
//
compound: Cn1cc(C(C)(C)CC(=O)N2CCCC3(C)CCCCC23)c2ccccc21 (stereo not shown) [Compound 59]
result: 6.70 to 6.82
//
compound: CC(CC(=O)N1CCCC2C(C(=O)O)CCCC21)c1c[nH]c2ccc(F)c(C3CC3)c12 (stereo not shown) [Compound 220]
result: > 7.00
//
compound: CC1CCC2CCCCC2N1C(=O)CCc1nc2ccccc2s1 (stereo not shown) [Example 76]
result: < 6.60

###

target.or.test.system: human full length HSD11 β 1 (Homo sapiens, UniProt P28845)
Construct: transient expression of human full length HSD11 β 1 expression vector; host or cells: CHO cells (transient transfection)
assay.method.text: In Vitro HSD11β1 Inhibition Assay
Type: cell-based
measurement.context: CHO cells transiently expressing human HSD11β1; 200 nM cortisone+500 uM NADPH overnight; cortisone to cortisol by LC/MS-MS; read-out: 11βHSD1 (IC50)
pIC50: −log10 of the molar value.
pIC50 by entry:

compound: O=C(CCc1nc2ccccc2s1)N1CCC2CCCCC21 (stereo not shown)
target.or.test.system: human full length HSD11 β 1 (Homo sapiens, UniProt P28845)
pIC50: > 7.00
//
compound: CC(CC(=O)N1CCCC2CCCCC21)c1c[nH]c2ncccc12 (single isomer, unassigned) [Example 145]
target.or.test.system: human full length HSD11 β 1 (Homo sapiens, UniProt P28845)
pIC50: > 7.00
//
compound: O=C(O)C1CCN(C(=O)CC(c2ccccc2)n2nnc3ccccc32)C2CCCCC12 (single isomer, unassigned) [Example 182]
target.or.test.system: human full length HSD11 β 1 (Homo sapiens, UniProt P28845)
pIC50: < 6.60
//
compound: CCOC(=O)C12CCCCC1N(C(=O)CC(C)c1c[nH]c3cccc(Cl)c13)CCC2 (stereo not shown)
target.or.test.system: human full length HSD11 β 1 (Homo sapiens, UniProt P28845)
pIC50: < 6.60
//
compound: O=C(O)C1CCN(C(=O)CC(c2ccccc2)c2c[nH]c3cccc(F)c23)C2CCCCC12 (single isomer, unassigned) [Example 161]
target.or.test.system: human full length HSD11 β 1 (Homo sapiens, UniProt P28845)
pIC50: > 7.00
//
compound: CC(CC(=O)N1CCCC2C(C(=O)O)CCCC21)c1c[nH]c2cccc(C3CC3)c12 (single isomer, unassigned) [Compound 195]
target.or.test.system: human full length HSD11 β 1 (Homo sapiens, UniProt P28845)
pIC50: > 7.00
//
compound: O=C(CCc1nc2ccccc2s1)N1CCO[C@@H]2CCCC[C@H]21 (relative stereo)
target.or.test.system: human full length HSD11 β 1 (Homo sapiens, UniProt P28845)
pIC50: < 6.60

###

target.or.test.system: human full length HSD11 β 1 (Homo sapiens)
Construct: transient expression of human full length HSD11 β 1 expression vector; host or cells: CHO cells (transient transfection)
assay.method.text: In Vitro HSD11β1 Inhibition Assay
Type: cell-based
measurement.context: CHO cells transiently expressing human HSD11β1; 200 nM cortisone+500 uM NADPH overnight; cortisone to cortisol by LC/MS-MS; read-out: 11βHSD1 (IC50)
pIC50: −log10 of the molar value.
pIC50 by entry:
quantity.measured: pIC50

molecule: CC(CC(=O)N1CCCC2CCCCC21)c1cn(C)c2ccccc12 (centres unmarked) [Example 94]
result: 6.70 to 6.82
//
molecule: O=C(O)C1CCN(C(=O)CC(c2cccs2)c2c[nH]c3cccc(Cl)c23)C2CCCCC12 (centres unmarked) [Example 184]
result: < 6.60
//
molecule: CC(CC(=O)N1CCCC2CC(C(=O)O)CCC21)c1c[nH]c2cccc(C3CC3)c12 (centres unmarked) [Compound 191]
result: 6.82 to 7.00
//
molecule: CC(CC(=O)N1CCCC2C(C(=O)O)CCCC21)c1c[nH]c2cccc(-c3ccc(F)o3)c12 (single isomer, unassigned) [Compound 250]
result: > 7.00
//
molecule: CC(C)c1cccc2[nH]cc(C(C)CC(=O)N3CCCC4C(C(=O)O)CCCC43)c12 (centres unmarked) [Compound 211]
result: > 7.00
//
molecule: O=C(O)C1CCN(C(=O)CC(c2cccs2)c2c[nH]c3cccc(F)c23)C2CCCCC12 (centres unmarked) [Example 156]
result: > 7.00
//
molecule: CC(C)C(CC(=O)N1CCC(=O)C2CCCCC21)c1c[nH]c2ccccc12 (centres unmarked) [Example 104]
result: < 6.60
//
molecule: CC(CC(=O)N1CCC(C(=O)O)C2CCCCC21)c1c[nH]c2cccc(Cl)c12 (centres unmarked) [Example 158]
result: < 6.60
